Data provenance: ChEMBL document CHEMBL1157296

Test system: Mycolicibacterium smegmatis
assay_method_text: Antimicrobial activity against Mycobacterium smegmatis ATCC 607
Format: functional
readout_label: MIC (µg/mL)
Reply numerically in µg/mL, unit not repeated.

Some compounds with known MIC results, for comparison:
Exercise: Could you share which MIC value was measured for CC1(C)CCC[C@]2(C)Oc3c(c(O)cc(O)c3C(=O)c3ccccc3)C[C@@H]12 ?
Key: 6.25

Exercise: Could you share which MIC value was measured for CC(C)=CCC[C@]1(C)Oc2c(c(O)cc(O)c2C(=O)c2ccccc2)C[C@@H]1O ?
Key: 25

Exercise: Could you share which MIC value was measured for CN[C@@H]1[C@H](O[C@H]2[C@H](O[C@H]3[C@H](O)[C@@H](O)[C@H](N=C(N)N)[C@@H](O)[C@@H]3N=C(N)N)O[C@@H](C)[C@]2(O)C=O)O[C@@H](CO)[C@H](O)[C@H]1O.CN[C@@H]1[C@H](O[C@H]2[C@H](O[C@H]3[C@H](O)[C@@H](O)[C@H](N=C(N)N)[C@@H](O)[C@@H]3N=C(N)N)O[C@@H](C)[C@]2(O)C=O)O[C@@H](CO)[C@H](O)[C@H]1O.O=S(=O)(O)O.O=S(=O)(O)O.O=S(=O)(O)O [STREPTOMYCIN SULFATE] ?
Key: 12.5

Exercise: Could you share which MIC value was measured for CC(C)=CCC/C(C)=C/Cc1c(O)cc(O)c(C(=O)c2ccccc2)c1O ?
Key: 50

Let us examine a further case.
Exercise: Could you share which MIC value was measured for CC(C)=CCC/C(C)=C/COc1cc(O)c(C(=O)c2ccccc2)c(O)c1 ?
Key: 12.5

====

Tested on: SF-268
assay_method_text: Cytotoxicity against human SF268 cells
Type: functional
This listing pairs compounds with measured GI50.

Some compounds with known GI50 results, for comparison:
Exercise: Could you share which GI50 value was measured for CC(C)=CCC[C@]1(C)Oc2c(c(O)cc(O)c2C(=O)c2ccccc2)C[C@@H]1O ?
Key: 5.6 µg/mL

Exercise: Could you share which GI50 value was measured for CC(C)=CCC/C(C)=C/COc1cc(O)c(C(=O)c2ccccc2)c(O)c1 ?
Key: 2 µg/mL

Exercise: Could you share which GI50 value was measured for C=C(CCC=C(C)C)[C@H](O)Cc1c(O)cc(O)c(C(=O)c2ccccc2)c1O ?
Key: 6.5 µg/mL

Exercise: Could you share which GI50 value was measured for CC1(C)CCC[C@]2(C)Oc3c(c(O)cc(O)c3C(=O)c3ccccc3)C[C@@H]12 ?
Key: 1.7 µg/mL

Let us examine a further case.
Exercise: Could you share which GI50 value was measured for COc1cccc2c1C(=O)c1c(O)c3c(c(O)c1C2=O)C[C@@](O)(C(=O)CO)C[C@@H]3O[C@H]1C[C@H](N)[C@H](O)[C@H](C)O1 ?
Key: 0.5 µg/mL

====

Test system: Salmonella enterica subsp. enterica serovar Gallinarum
assay_method_text: Antimicrobial activity against Salmonella gallinarum ATCC 9184
Assay type: functional
Active and inactive are the calls of the source. No cut-off for these calls is given here.
readout_label: Activity

Exercise: Could you share which Activity value was measured for C[C@@H]1[C@H](O)[C@@H](C)/C=C/C=C/C=C/C=C/C=C/C=C/C=C/[C@H](O[C@@H]2O[C@H](C)[C@@H](O)[C@H](N)[C@@H]2O)C[C@@H]2O[C@](O)(C[C@@H](O)C[C@@H](O)[C@H](O)CC[C@@H](O)C[C@@H](O)CC(=O)O[C@H]1C)C[C@H](O)[C@H]2C(=O)O ?
Key: inactive

Exercise: Could you share which Activity value was measured for CC(C)=CCC[C@]1(C)Oc2c(c(O)cc(O)c2C(=O)c2ccccc2)C[C@@H]1O ?
Key: inactive

Exercise: Could you share which Activity value was measured for CC(C)=CCC/C(C)=C/COc1cc(O)c(C(=O)c2ccccc2)c(O)c1 ?
Key: inactive

Exercise: Could you share which Activity value was measured for CC(C)=CCC/C(C)=C/Cc1c(O)cc(O)c(C(=O)c2ccccc2)c1O ?
Key: inactive
